- Measured On: UniProt P21731
- Sequence (P21731 whole entry): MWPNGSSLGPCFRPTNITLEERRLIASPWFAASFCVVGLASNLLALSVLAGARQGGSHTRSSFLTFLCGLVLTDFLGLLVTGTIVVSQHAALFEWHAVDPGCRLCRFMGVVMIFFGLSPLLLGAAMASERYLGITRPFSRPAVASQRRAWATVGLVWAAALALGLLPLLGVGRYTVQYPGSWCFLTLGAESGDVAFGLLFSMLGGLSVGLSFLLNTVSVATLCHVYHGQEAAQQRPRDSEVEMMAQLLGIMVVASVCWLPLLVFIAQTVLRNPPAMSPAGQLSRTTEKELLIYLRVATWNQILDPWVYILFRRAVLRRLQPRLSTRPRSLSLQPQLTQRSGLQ
- Assay Text: Selectivity interaction (Thromboxane A2 receptor binding assay, human recombinant) EUB0000877a TBXA2R
pIC50: −log10 of the molar value.
Value Kind: pIC50

**Query** GET /values?readout=pIC50&item= CCC(=O)N1CC[C@H](Nc2ncnc3c2CN(c2cnc(OC)c(C(F)(F)F)c2)CC3)C1
**Result** < 4.52

====

- Measured On: UniProt O43781
- Sequence (O43781 whole entry): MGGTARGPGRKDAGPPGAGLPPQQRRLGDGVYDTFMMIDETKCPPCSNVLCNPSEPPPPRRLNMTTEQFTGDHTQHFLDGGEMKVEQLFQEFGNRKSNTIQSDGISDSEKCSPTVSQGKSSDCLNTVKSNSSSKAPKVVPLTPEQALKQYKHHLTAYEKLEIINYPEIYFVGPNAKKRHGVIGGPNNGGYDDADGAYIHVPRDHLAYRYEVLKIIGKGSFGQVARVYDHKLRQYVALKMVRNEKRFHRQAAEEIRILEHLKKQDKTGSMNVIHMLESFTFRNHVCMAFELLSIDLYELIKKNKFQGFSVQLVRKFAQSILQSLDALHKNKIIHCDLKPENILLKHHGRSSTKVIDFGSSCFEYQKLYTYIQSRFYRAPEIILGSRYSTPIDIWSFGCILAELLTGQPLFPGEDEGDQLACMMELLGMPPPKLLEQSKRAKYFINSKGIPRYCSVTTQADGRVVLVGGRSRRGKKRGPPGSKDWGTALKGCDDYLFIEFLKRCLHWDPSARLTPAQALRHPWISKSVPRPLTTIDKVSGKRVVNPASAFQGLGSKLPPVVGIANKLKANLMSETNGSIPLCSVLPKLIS
- Assay Text: Selectivity interaction (Radioactive assay (Reaction Biology)) EUB0001046a DYRK3
Value Kind: IC50

**Query** Observed IC50 on UniProt O43781 for CN(c1ncccc1CNc1ccnc(-c2cc3cc(Cl)ccc3[nH]2)n1)S(C)(=O)=O , please.
**Result** > 10 µM

====

- Measured On: Beta-2 adrenergic receptor (Homo sapiens, UniProt P07550)
- Sequence (P07550 whole entry): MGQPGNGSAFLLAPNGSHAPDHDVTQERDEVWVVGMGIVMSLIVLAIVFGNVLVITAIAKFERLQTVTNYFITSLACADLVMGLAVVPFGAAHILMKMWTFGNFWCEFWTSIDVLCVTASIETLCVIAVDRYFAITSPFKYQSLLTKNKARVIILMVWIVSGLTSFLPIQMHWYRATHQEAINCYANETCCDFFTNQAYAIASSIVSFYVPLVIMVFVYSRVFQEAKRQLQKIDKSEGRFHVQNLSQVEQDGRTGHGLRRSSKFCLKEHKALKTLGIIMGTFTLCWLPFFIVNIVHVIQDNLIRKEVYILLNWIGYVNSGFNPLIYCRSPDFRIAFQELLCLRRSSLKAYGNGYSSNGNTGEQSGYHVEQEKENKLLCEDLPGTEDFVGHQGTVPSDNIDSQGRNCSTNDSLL
- Assay Text: Selectivity interaction (Beta 2 adrenergic receptor assay, human recombinant ) EUB0000877a ADRB2
Value Kind: IC50

**Query** Observed IC50 on Beta-2 adrenergic receptor (Homo sapiens, UniProt P07550) for CCC(=O)N1CC[C@H](Nc2ncnc3c2CN(c2cnc(OC)c(C(F)(F)F)c2)CC3)C1 , please.
**Result** > 30 µM

====

- Measured On: RAC-alpha serine/threonine-protein kinase (Homo sapiens, UniProt P31749)
- Sequence (P31749 whole entry): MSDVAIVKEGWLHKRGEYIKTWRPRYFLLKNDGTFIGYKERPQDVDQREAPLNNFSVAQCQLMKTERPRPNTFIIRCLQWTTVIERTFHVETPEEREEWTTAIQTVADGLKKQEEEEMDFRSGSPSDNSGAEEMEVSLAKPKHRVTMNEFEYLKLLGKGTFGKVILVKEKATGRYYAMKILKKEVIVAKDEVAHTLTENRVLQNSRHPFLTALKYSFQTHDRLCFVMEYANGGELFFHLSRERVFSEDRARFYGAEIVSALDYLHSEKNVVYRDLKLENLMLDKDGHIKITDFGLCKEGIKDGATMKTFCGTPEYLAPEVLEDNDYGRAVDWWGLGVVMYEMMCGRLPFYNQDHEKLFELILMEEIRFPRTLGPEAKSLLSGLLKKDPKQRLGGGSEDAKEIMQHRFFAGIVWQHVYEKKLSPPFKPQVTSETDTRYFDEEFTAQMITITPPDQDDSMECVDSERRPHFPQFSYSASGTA
- Assay Text: Selectivity interaction (Kinase panel (33PanQinase(R) Activity Assay)) EUB0000877a AKT1
pIC50: −log10 of the molar value.
Value Kind: pIC50

**Query** GET /values?readout=pIC50&item= CCC(=O)N1CC[C@H](Nc2ncnc3c2CN(c2cnc(OC)c(C(F)(F)F)c2)CC3)C1
**Result** < 5.00

====

- Measured On: Phosphatidylinositol 3-kinase catalytic subunit type 3 (Homo sapiens)
- Sequence (Q8NEB9 whole entry): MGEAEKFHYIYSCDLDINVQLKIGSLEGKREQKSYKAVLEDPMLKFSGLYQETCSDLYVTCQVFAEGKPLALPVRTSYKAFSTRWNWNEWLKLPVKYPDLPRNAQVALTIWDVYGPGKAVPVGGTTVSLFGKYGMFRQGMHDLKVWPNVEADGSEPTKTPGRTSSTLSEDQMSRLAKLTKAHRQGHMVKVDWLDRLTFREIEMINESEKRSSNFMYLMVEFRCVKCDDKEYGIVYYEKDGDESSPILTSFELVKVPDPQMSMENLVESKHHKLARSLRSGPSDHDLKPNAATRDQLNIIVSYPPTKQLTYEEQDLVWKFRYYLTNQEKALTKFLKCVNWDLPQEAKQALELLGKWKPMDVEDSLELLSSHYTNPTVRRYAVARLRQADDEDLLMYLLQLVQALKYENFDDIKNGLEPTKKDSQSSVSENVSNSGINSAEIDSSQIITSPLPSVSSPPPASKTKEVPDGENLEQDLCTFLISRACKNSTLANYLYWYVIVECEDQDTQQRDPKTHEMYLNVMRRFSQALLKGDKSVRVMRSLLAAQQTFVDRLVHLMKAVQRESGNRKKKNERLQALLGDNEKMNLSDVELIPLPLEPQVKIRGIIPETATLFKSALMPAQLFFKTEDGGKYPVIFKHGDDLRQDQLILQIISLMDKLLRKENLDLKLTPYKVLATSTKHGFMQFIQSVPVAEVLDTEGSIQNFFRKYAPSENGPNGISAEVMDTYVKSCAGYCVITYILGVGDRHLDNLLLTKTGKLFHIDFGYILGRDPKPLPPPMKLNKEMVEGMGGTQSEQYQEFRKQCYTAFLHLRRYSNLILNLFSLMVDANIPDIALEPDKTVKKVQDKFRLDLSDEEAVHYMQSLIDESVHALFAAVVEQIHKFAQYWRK
- Assay Text: Selectivity interaction (Kinase panel (KinaseGlo Luminescent Kinase Assay, Promega)) EUB0000678a PIK3C3
Value Kind: IC50

**Query** GET /values?readout=IC50&item= CCN1CCN(c2ccc(Nc3cc(N(C)C(=O)Nc4c(Cl)c(OC)cc(OC)c4Cl)ncn3)cc2)CC1
**Result** > 9 µM
